test: growth inhibition of yeast control strain, primary screen, counter-screen for post-Golgi transport modulator project (AID 738); conditions: efflux-deficient yeast background strain, growth absorbance A615, 16 h; at 10 µM
Screen size: about 98,000 compounds; about 4,900 (5%) were called active. Rule as the data show it: active = inhibition above about 30%; inactive = the rest. The sample as a whole holds a higher share of actives than the screen did.
Output constraint: value belongs to active, inactive

Reference set, count: 5
Molecule | Discrete Label
COC(=O)c1ccc(Sc2ccc(F)cc2)c(N)c1 | inactive
CCOC(=O)C1CCN(C(=O)c2oc3ccc(S(=O)(=O)N4CCCCCC4)cc3c2C)CC1 | inactive
CCCOc1ccc2c3c(c(=O)oc2c1OCCC)CCC3 | active
CCOC(=O)C1CCN(c2ncnc3c2oc2ccc(Br)cc23)CC1 | active
CCOC(=O)N1CCN(C(=O)C2CCN(c3ncnc4c3sc3cccc(F)c34)CC2)CC1 | inactive

Tell me the assay call for COc1ccc(-c2c(C(C)=O)c(C)nc3sc4c(=O)n(-c5ccc(C)cc5)nnc4c23)cc1 please.
inactive

Tell me the assay call for CS(=O)(=O)N(CC(=O)Nc1ccc(F)cc1F)c1cccc([N+](=O)[O-])c1 please.
inactive

Tell me the assay call for COC(=O)NC1(C(F)(F)F)NC(=O)N(C2CCCCC2)C1=O (stereo not given) please.
inactive

Tell me the assay call for O=C1NC(Nc2nc3ccccc3s2)(C(F)(F)F)C(=O)N1C1CCCCC1 (stereo not given) please.
active

Tell me the assay call for CCOc1cc2[nH]c(=O)n(CCC(=O)NCc3ccc(OC)cc3)c(=O)c2cc1OCC please.
inactive
